Target: CDK1/CyclinB1 (Homo sapiens)
Test: CDKi biochemical assay (TR-FRET, phosphorylation of S780 on RB1 peptide)
Settings: CDK1/CyclinB1 10 pM, 1 mM ATP, 60 min at 25° C.
metric_name: log10 IC50 (log10 of the value in nM)

{"columns": ["compound", "reported"],
 "data": [
  ["O=C1N([C@@H]2CCC[C@@H](O)C2)c2nc(Nc3c[nH]nc3OCC3COCC3(F)F)ncc2C12CC2 (stereo partly drawn) [Example 76]", 3.52],
  ["O=C1N([C@@H]2CCC[C@@H](O)C2)c2nc(Nc3c[nH]nc3O[C@H]3CCOC3)ncc2C12CC2 [Example 78]", 3.40],
  ["O=C1N([C@@H]2CCC[C@@H](O)C2)c2nc(Nc3c[nH]nc3OCCO)ncc2C12CC2 [Example 42]", 3.57],
  ["N#Cc1n[nH]cc1Nc1ncc2c(n1)N([C@@H]1CCC[C@@H](O)C1)C(=O)C21CC1 [Example 20]", 2.82],
  ["O=C1N([C@@H]2CCC[C@@H](O)C2)c2nc(Nc3c[nH]nc3OC3CCC3)ncc2C12CC2 [Example 40]", 3.46],
  ["O=C1N([C@@H]2CCC[C@@H](O)C2)c2nc(Nc3c[nH]nc3OCCF)ncc2C12CC2 [Example 39]", 3.08],
  ["O=C1N([C@@H]2CCC[C@@H](O)C2)c2nc(Nc3c[nH]nc3OC[C@@H]3CCOC3)ncc2C12CC2 [Example 71]", 3.88],
  ["O=C1N([C@@H]2CCC[C@@H](O)C2)c2nc(Nc3c[nH]nc3C(F)F)ncc2C12CC2 [Example 3]", 2.91],
  ["O=C1N([C@@H]2CCC[C@@H](O)C2)c2nc(Nc3c[nH]nc3C3CC3(F)F)ncc2C12CC2 (single isomer, unassigned) [Example 32]", 2.53],
  ["COCCn1cc(Nc2ncc3c(n2)N([C@@H]2CCC[C@@H](O)C2)C(=O)C32CC2)cn1 [Example 16]", 3.37],
  ["CC#Cc1n[nH]cc1Nc1ncc2c(n1)N([C@@H]1CCC[C@@H](O)C1)C(=O)C21CC1 [Example 58]", 3.55]
]}

* * *

Reported IC50 values for a set of compounds
Target: CDK6/cyclinD3 (Homo sapiens, UniProt Q00534)
Test: CDKi biochemical assay (TR-FRET, phosphorylation of S780 on RB1 peptide)
Conditions: CDK6/cyclinD3 10 pM, 1 mM ATP, 60 min at 25° C.

{"columns": ["smiles_string", "qualifying_sign", "IC50 [µM]"],
 "data": [
  ["COCc1ncc(Nc2ncc3c(n2)N([C@@H]2CCC[C@@H](O)C2)C(=O)C32CC2)[nH]1", "=", 9.35],
  ["O=C1N([C@@H]2CCC[C@@H](O)C2)c2nc(Nc3c[nH]nc3-c3ccccn3)ncc2C12CC2", "≥", 10],
  ["O=C1N([C@@H]2CCC[C@@H](O)C2)c2nc(Nc3c[nH]nc3OC3CC3)ncc2C12CC2", "≥", 10],
  ["O=C1N([C@@H]2CCC[C@@H](O)C2)c2nc(Nc3c[nH]nc3O[C@@H]3COC[C@@H]3F)ncc2C12CC2", "=", 8.5],
  ["Cc1cc(Nc2ncc3c(n2)N([C@@H]2CCC[C@@H](O)C2)C(=O)C32CC2)[nH]n1", "=", 5.73],
  ["Cc1n[nH]cc1Nc1ncc2c(n1)N([C@H]1C[C@H](O)CC(C)(C)C1)C(=O)C21CC1", "=", 2.21],
  ["O=C1N([C@@H]2CCC[C@@H](O)C2)c2nc(Nc3c[nH]nc3OCC3(F)COC3)ncc2C12CC2", "≥", 10],
  ["COC(=O)c1n[nH]cc1Nc1ncc2c(n1)N([C@@H]1CCC[C@@H](O)C1)C(=O)C21CC1", "≥", 10],
  ["Cn1ncc(-c2n[nH]cc2Nc2ncc3c(n2)N([C@@H]2CCC[C@@H](O)C2)C(=O)C32CC2)c1C(F)(F)F", "≥", 10],
  ["O=C1N([C@@H]2CCC[C@@H](O)C2)c2nc(Nc3c[nH]nc3CO)ncc2C12CC2", "=", 2.18],
  ["O=C1N([C@@H]2CCC[C@@H](O)C2)c2nc(Nc3c[nH]nc3OC3(CF)CC3)ncc2C12CC2", "≥", 10],
  ["Cn1ccc(COc2n[nH]cc2Nc2ncc3c(n2)N([C@@H]2CCC[C@@H](O)C2)C(=O)C32CC2)n1", "=", 8.84],
  ["O=C1N([C@@H]2CCC[C@@H](O)C2)c2nc(Nc3c[nH]nc3O)ncc2C12CC2", "=", 5.26],
  ["O=C1N([C@@H]2CCC[C@@H](O)C2)c2nc(Nc3c[nH]nc3OCCF)ncc2C12CC2", "=", 2.95],
  ["O=C1N([C@@H]2CCC[C@@H](O)C2)c2nc(Nc3c[nH]nc3OC[C@@H]3CCOC3)ncc2C12CC2", "≥", 10]
]}

Sourced from patent US20240360137A1
